The measurements presented in this section are drawn from paper PMC10663500.

- ASSAY_SYSTEM: T1, mouse programmed cell death protein 1 Fc fusion protein (mPD-1-Fc), mPD-1 C60S (aa 25-167) (Mus musculus, UniProt Q02242, stabilised)
- T1 construct: not cleaved; source: Expi293F, purified (Protein A, SEC; dimeric fraction); not shown: Fc (human), C-terminal, kept
- ASSAY_PROCEDURE: SPR; Carterra LSA; Fab from the ammonium sulfate precipitate of the culture supernatant immobilised on a NiHC200M chip; hPD-1 (1-1024 nM) or mPD-1-Fc (4-1024 nM) as analyte, fourfold dilution series, no regeneration; HBS-EP pH 7.4, 25 °C; medians over the spots of a construct, KD = koff/kon
- MEASUREMENT_CONTEXT: one partner purified
VALUE_KIND: koff (s⁻¹)
I only need the number, in s⁻¹, no unit after it.

Below, 3 binders whose answers are already recorded.
### Prompt Any idea what koff was measured for toripalimab Fab L.Q27Y (Fab, V domains shown, as the heavy chain of Sm3; light chain of Sm3 with this change; numbers count from the chain's first residue; source: Brevibacillus, culture supernatant (ammonium sulfate precipitate); not shown: 6xHis, C-terminal, kept; 6xHN, C-terminal, kept) VH: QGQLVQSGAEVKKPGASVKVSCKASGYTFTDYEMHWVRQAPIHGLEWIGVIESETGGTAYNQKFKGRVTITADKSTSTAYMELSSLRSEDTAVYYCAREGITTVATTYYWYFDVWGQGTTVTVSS VL: DVVMTQSPLSLPVTLGQPASISCRSSYSIVHSNGNTYLEWYLQKPGQSPQLLIYKVSNRFSGVPDRFSGSGSGTDFTLKISRVEAEDVGVYYCFQGSHVPLTFGQGTKLEIK ?
### Response 0.0122

### Prompt Try this binder too: toripalimab Fab L.P100W (Fab, V domains shown, as the heavy chain of Sm3; light chain of Sm3 with this change; numbers count from the chain's first residue; source: Brevibacillus, culture supernatant (ammonium sulfate precipitate); not shown: 6xHis, C-terminal, kept; 6xHN, C-terminal, kept) VH: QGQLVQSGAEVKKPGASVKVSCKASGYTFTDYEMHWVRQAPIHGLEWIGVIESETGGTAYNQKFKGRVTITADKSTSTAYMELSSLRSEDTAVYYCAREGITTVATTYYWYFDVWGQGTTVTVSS VL: DVVMTQSPLSLPVTLGQPASISCRSSQSIVHSNGNTYLEWYLQKPGQSPQLLIYKVSNRFSGVPDRFSGSGSGTDFTLKISRVEAEDVGVYYCFQGSHVWLTFGQGTKLEIK
### Response 3.39e-05

### Prompt Try this binder too: toripalimab Fab H.T106A (Fab, V domains shown, heavy chain of Sm3 with this change; numbers count from the chain's first residue; as the light chain of Sm3; source: Brevibacillus, culture supernatant (ammonium sulfate precipitate); not shown: 6xHis, C-terminal, kept; 6xHN, C-terminal, kept) VH: QGQLVQSGAEVKKPGASVKVSCKASGYTFTDYEMHWVRQAPIHGLEWIGVIESETGGTAYNQKFKGRVTITADKSTSTAYMELSSLRSEDTAVYYCAREGITTVAATYYWYFDVWGQGTTVTVSS VL: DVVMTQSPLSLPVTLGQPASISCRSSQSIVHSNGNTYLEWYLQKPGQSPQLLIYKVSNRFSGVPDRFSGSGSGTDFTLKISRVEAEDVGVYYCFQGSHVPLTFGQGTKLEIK
### Response 0.00423

Attention now turns to another entry.
### Prompt Any idea what koff was measured for toripalimab Fab H.K65Y (Fab, V domains shown, heavy chain of Sm3 with this change; numbers count from the chain's first residue; as the light chain of Sm3; source: Brevibacillus, culture supernatant (ammonium sulfate precipitate); not shown: 6xHis, C-terminal, kept; 6xHN, C-terminal, kept) VH: QGQLVQSGAEVKKPGASVKVSCKASGYTFTDYEMHWVRQAPIHGLEWIGVIESETGGTAYNQKFYGRVTITADKSTSTAYMELSSLRSEDTAVYYCAREGITTVATTYYWYFDVWGQGTTVTVSS VL: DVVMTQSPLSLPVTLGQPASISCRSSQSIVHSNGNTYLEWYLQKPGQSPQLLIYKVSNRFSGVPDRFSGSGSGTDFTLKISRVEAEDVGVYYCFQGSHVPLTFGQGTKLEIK ?
### Response 0.012
